- TEST_METHOD_NOTES: gradient 5% acetonitrile 3 min, to 50% in 2 min, to 85% in 15 min, held 3 min, 100 µL/min
- ASSAY_CONTEXT: column: Zorbax Extend-C18 2.1 x 50 mm; eluents: water / acetonitrile, 0.1% formic acid
READOUT: RP-LC retention time (s)

CCn1c(=O)c(C)nc2cc(-c3noc(C4CC(=O)N(c5ccc(C)cc5)C4)n3)ccc21 (stereo not drawn) : 884
COc1ccc(N2C=C(C#N)S(=O)(=O)c3cc(F)ccc32)c(OC)c1 : 893
COc1ccc(-c2nnc(Cc3nc(-c4cccc(F)c4)no3)o2)cc1OC : 911
